The measurements presented in this section are drawn from ChEMBL document CHEMBL4513216.

# Assay Comment: Toxicity liver stage against HepG2, at 10uM
# Assay type: cell-based
# Design: test concentration 10 uM, cell line HepG2-A16-CD81EGFP
# Condition Label: human, HepG2-A16-CD81EGFP cells; read-out: INHIBITION
For each entry below, report its cytotoxicity at 10 µM value.
Write the answer as a number in %, unit excluded.

Reported cytotoxicity at 10 µM ( CCNc1nc(-c2cccnc2)c(-c2ccnc(NCCO)n2)s1 ) = -13.7

Noted for COc1ccc(CNC(C)c2cccc(Cl)c2)c(OC)c1OC (centres undefined) : its cytotoxicity at 10 µM reads 14

// recorded cytotoxicity at 10 µM for Cc1cc(C(=O)N2C[C@H](CO)C[C@H](CN3CCOCC3)C2)nc(C)n1 : 9.91

Entry CC(=O)N(C)CC(=O)NC1(c2ccc(F)cc2)CCCC1 — recorded cytotoxicity at 10 µM = 0.747

====

# Assay Comment: Toxicity liver stage against HepG2, at 10uM
# Assay type: cell-based
# Set-up: test concentration 10 uM, cell line HepG2-A16-CD81EGFP
# Condition Label: human, HepG2-A16-CD81EGFP cells; read-out: INHIBITION
Task for the reader: assign each of the following compounds its reported cytotoxicity at 10 µM.
Respond numerically; units are % and should not be typed.

The compound identified as Cc1noc(C2CCN(c3oc(C)nc3C#N)CC2)n1 registered its cytotoxicity at 10 µM at -6.32

Summary for this compound, CC(C)Oc1cccc(C(=O)C2CCCN(C(=O)c3ccnn3C)C2)c1 (centres undefined) : cytotoxicity at 10 µM is 1.3

Sure, the documented cytotoxicity at 10 µM for CN(C)C(=O)[C@@H]1C[C@H]2OCC[C@H]2N(CCOc2ccc(Cl)cc2)C1 is -124

// sample CCC[C@H]1CN(S(C)(=O)=O)C[C@@H]1NC(=O)Cc1ccc(OC)cc1 , its cytotoxicity at 10 µM was 1.85

====

# Assay Comment: Toxicity liver stage against HepG2, at 10uM
# Type: cell-based
# Set-up: test concentration 10 uM, cell line HepG2-A16-CD81EGFP
# Condition Label: human, HepG2-A16-CD81EGFP cells; read-out: INHIBITION
Value Kind: cytotoxicity at 10 µM (%)
Answer in %, number only, no unit symbol.

Field cytotoxicity at 10 µM (entry CC(C)CN1CCC(N2CCC(C(=O)N(C)C)CC2)CC1 ) reads 16.9

Entry C=C(C)C(=O)N1CCC(C(=O)c2cc(C)cnc2N)CC1 — recorded cytotoxicity at 10 µM = -2.88

// sample CN1CCN(C2CCN(C(C(N)=O)c3ccccc3)CC2)C1=O (stereo unspecified) , its cytotoxicity at 10 µM was -4.29

What the record says about CCNC(=O)NC[C@H]1COCc2nc3cc(C)ccc3n21 : cytotoxicity at 10 µM is 3.72

Entry CCc1cnc(CN(C)C(=O)Nc2cnc3c(c2)c(C)nn3C)s1 — recorded cytotoxicity at 10 µM = 2.37

Value of measured cytotoxicity at 10 µM for the entry COc1cc(CNCC(O)c2ccc(C)cc2)cc2c1OCO2 (stereo unspecified) : -0.282

====

# Assay Comment: Toxicity liver stage against HepG2, at 10uM
# Assay type: cell-based
# Set-up: test concentration 10 uM, cell line HepG2-A16-CD81EGFP
# Condition Label: human, HepG2-A16-CD81EGFP cells; read-out: INHIBITION
Value Kind: cytotoxicity at 10 µM (%)
Record the value in %, omitting the unit from your answer.

So for O=C(NC1CC1)N1CCc2ccc(=O)n(Cc3cccnc3)c2CC1 , the logged cytotoxicity at 10 µM turned out to be 0.995

Entry under test: c1cc2c(cc1CSCc1noc(C3CC3)n1)OCCO2 . Its cytotoxicity at 10 µM was 10.4

Entry under test: CNc1cc(CNC(=O)c2cccnc2)nc(-c2ccncc2)n1 . Its cytotoxicity at 10 µM was -9.88

The reported cytotoxicity at 10 µM of the molecule CCOCC(=O)NCC1CCN(Cc2ccsc2)CC1 was 11.1

The recorded cytotoxicity at 10 µM for entry COc1cccc(CCCn2cnnc2[S+](C)[O-])c1 (stereo not given) equals -12.7

Looking up Cc1cc(C(F)(F)F)n2nc(C3CCCN3C3CCSCC3)cc2n1 (stereo not given) , I found its cytotoxicity at 10 µM recorded as 1.77

Query CCc1nc(CN2CCCN(C(=O)C(C)n3ccnc3)CC2)cs1 (stereo not given) yields cytotoxicity at 10 µM of -13.8

get_value(item= COc1ncccc1CN1C[C@@H]2OCCN(CCN(C)C)[C@@H]2C1 , readout=cytotoxicity at 10 µM) returns 11.8

Reported cytotoxicity at 10 µM of Cn1cc(-c2cc(C(F)(F)F)nn2CCC#N)cn1 : 6.5

The reported cytotoxicity at 10 µM of the molecule Cc1ccc(-c2ccnc(N3CCC4(CC3)CNC(=O)O4)n2)c(C)n1 was -6.93

So for COc1cccc(C=CCCN2CCCN(C(C)=O)CC2)c1 , the logged cytotoxicity at 10 µM turned out to be 6.67

Per the record, O=C(NCCNc1ccc(C(F)(F)F)cn1)c1cc(Cl)ccc1F has cytotoxicity at 10 µM of -8.27

cytotoxicity at 10 µM recorded for this molecule, Cc1nnc(CSc2ccccn2)o1 , is 14.3

For Cc1nc(CN2C(=O)CC[C@@H]3[C@H]2CCN3C(=O)C2CCOCC2)cs1 the molecule record lists cytotoxicity at 10 µM as -81.3

The reported cytotoxicity at 10 µM of the molecule COCC(=O)NCc1cc(=O)n2c(n1)CN(Cc1ccccc1)CCC2 was -103

Sure, the documented cytotoxicity at 10 µM for CN1CCC(c2cc(C(F)(F)F)n3ccnc3n2)CC1 is -9.6

// COc1ccc(CN2CCC3(CCN(c4cccnc4)C3=O)C2)cc1 (stereo not given) : cytotoxicity at 10 µM value = 5.16

For reference, reported cytotoxicity at 10 µM for COc1ccc2cccc(CC(=O)NCc3n[nH]c(=O)[nH]3)c2c1 stands at -3.22

For record COc1cc(S(=O)(=O)N2CCCc3ccccc32)cc(C(=O)O)c1OC the listed cytotoxicity at 10 µM is 1.8

GET /value?item= O=C1CC[C@@H](C(=O)N2CCc3[nH]nc(COc4cccc(Cl)c4)c3C2)N1 &field=cytotoxicity at 10 µM returns -52.1

Reported cytotoxicity at 10 µM ( Cc1cccc(NC2CCN(C(=O)Nc3ccc(F)c(F)c3)CC2)n1 ) = 9.59

For record CNCC(=O)N1CCCC1c1n[nH]cc1-c1ccccc1F (stereo not given) the listed cytotoxicity at 10 µM is -0.136

Per the records, this molecule ( Cc1ccc(CNC(=O)NC(C)CN2CCOCC2)s1 (stereo not given) ) has cytotoxicity at 10 µM equal to -14.1

Given item c1cnc(-c2nc(CNCCn3cccn3)cs2)nc1 , the value recorded as its cytotoxicity at 10 µM is -10.3

Note to self: cytotoxicity at 10 µM recorded for COC1COC2(CCN(Cc3cccc(C#N)c3)CC2)C1 (stereo not given) was -1.75

Summary for this molecule, CC(=O)N1CCC(n2ccc(-c3cnc(NCC(C)C)nc3)n2)CC1 : cytotoxicity at 10 µM is -9.13

Data point: c1cc(CNCc2ccnc(N3CCCC3)c2)c2c(c1)OCCO2 ; cytotoxicity at 10 µM = 3.64

// COCCN(C(=O)c1nc(-c2ccco2)sc1C)C1CC1 : cytotoxicity at 10 µM value = -8.96

// cytotoxicity at 10 µM value for CC(OCC(F)(F)F)C(=O)Nc1ccc(-n2cncn2)nc1 (stereo not given) : 3.44

get_value(item= O=C(CCCOc1ccccc1)N1CCCC(n2cncn2)C1 (stereo not given) , readout=cytotoxicity at 10 µM) returns -8.57

Field cytotoxicity at 10 µM (entry Cc1nn(CC(=O)NCc2cc3n(n2)CCCN(CC(C)C)C3)cc1Cl ) reads 1.95

Entry CC(=O)c1cc(CN2C[C@@H]3CC[C@H]2CN(Cc2c(C)noc2C)C3)cs1 , cytotoxicity at 10 µM reported as -1.43

# cytotoxicity at 10 µM of c1cnn(Cc2nnc3n2CCCN(CC2CCOCC2)C3)c1 = 2.6

According to the records, this molecule O=C(c1cscn1)N1CCO[C@H]2[C@@H](Oc3ccccn3)CC[C@@H]21 displays cytotoxicity at 10 µM of -109

Query Cc1ccc2[nH]c(CN3CC[C@@H](N4CCN(C)CC4)[C@H](O)C3)c(C)c2c1 yields cytotoxicity at 10 µM of -7.34

// COCCC(=O)N1CCC2(CCN(Cc3cccc(F)c3)CC2)CC1 : cytotoxicity at 10 µM value = -75

Noted for COCCN1CCC2(CC1)CC(CC(N)=O)c1ccc(F)cc12 (stereo not given) : its cytotoxicity at 10 µM reads 8.98

// recorded cytotoxicity at 10 µM for COc1ccnc(N2CCN(C(=O)Cc3ccsc3)CC2)n1 : -3

Query Cc1cc(=O)[nH]c(-n2nc(-c3ccccc3)cc2N)n1 yields cytotoxicity at 10 µM of 5.71

Entry Cc1ccccc1SCC(=O)NC1CCC(n2cnnc2)CC1 (stereo not given) ; cytotoxicity at 10 µM = -48
